Target: T1, human NKG2D expressed on cells (human, UniProt P26718 1-216)
T1 construct: the cell type is named under assay; also called NKG2D on NK92 cells; HEK293T human NKG2D
T1 chain: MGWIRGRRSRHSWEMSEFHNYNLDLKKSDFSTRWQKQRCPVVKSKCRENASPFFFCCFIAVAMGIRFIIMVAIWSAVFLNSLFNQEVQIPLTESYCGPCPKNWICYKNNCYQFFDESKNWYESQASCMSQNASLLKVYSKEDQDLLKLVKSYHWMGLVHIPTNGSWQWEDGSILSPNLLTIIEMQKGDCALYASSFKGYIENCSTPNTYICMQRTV
Experiment: flow cytometry; NK92 cells

binder | unitAbbreviation | EC50
anti-NKG2D antibody clone 320 (antibody, V domains shown, From transgenic rabbits; also called 320 IgG) VH: EVQLLESGGGLVQPGGSLRLSCATSGFTFSDYAMSWVRQAPGKGLEWVSYNSFSVGSTDYADSVKGRFTISRDNSKNTLYLQMNSLRAEDTAVYYCSKHSGNYYTGPFHYWGQGTLVTVSS VL: DIQLTQSPSFLSASVGDRVTITCRASQGISSYLAWYQQKPGKAPKLLIYAASSLESGVPSRFSGSGSGTDFTLTISSLQPEDFATYYCQQSYSTPITFGQGTRLEIK | nM | 8.97
anti-NKG2D antibody clone 395 (antibody, V domains shown, From transgenic rabbits; rabbit VH, human VL) VH: QEQLEQSGGGLVTPGGSLKLCCTASGFDFNTFWMTWVRQAPGKGLEWIGCIHGGSGSRDYASWVNGRFTLSRDIDQSTACLQVNSLTAADTAMYYCARPGYRSWSKTFDLWGQGTMVTVSS VL: DIQMTQSPSSLSASVGDRVTITCRASQDISGALNWYQQKPGKAPNLLIYAASSLQSGVPSRFSGSGSGTDYTLTISSLQPEDFATYYCQQANSFPLTFGGGTKVEIK | nM | 2.49
anti-NKG2D antibody clone 296 (antibody, V domains shown, From transgenic rabbits) VH: EVQLLESGGGLVQPGGSLRLSCAASGFTFSSYAMSWVRQAPGKGLEWVSAIGIGGGGTYYADSVKGRFTISRDNSKNTLYLQMNSLRAEDTAVYHCAKGASFDFINFFPYWGQGTLVTVSS VL: DIQMTQSPSSLSASVGDRVTITCRASQGISNDLAWYQQKPGKAPKLLIYAASSLQSGVPSRFSGSGSGTDFTLTISSLQPEDFATYYCQQTYSTPLTFGGGTKVEIK | nM | 0.63
anti-NKG2D antibody clone 230 (antibody, V domains shown, From transgenic rabbits) VH: QQLEQSGGGLVKPGGSLELCCIASGFDFSTYWMTWVRQAPGKGLEWIGCIHGGGSGTTSYASWVNGRFTLSRDIDQSTGCLQLTSLTAADTAMYYCARPGYRSWSKTFDLWGQGTMVTVSS VL: DIQMTQSPSSLSASVGDRVTITCQANQDISNALNWYQQKPGKAPKLLIYAASSLQSGVPSRFSGSGSGTDFTLTISSLQPEDFAAYYCQQAASFPLTFGGGTKVEIK | nM | 2.72
